- measured-on: CCR5 (UniProt P51681)
- assay-method-text: cell-based or functional assay
Rule: CCR5 sequestration (%) (% of control surface CCR5) below 40 gives yes, anything at or above gives no.

binder: RANTES derivative: signature sequence SEQ ID NO: 23 fused to positions 10-68 of native RANTES (SEQ ID NO: 1) (ligand) QGPPLMSTQSCCFAYIARPLPRAHIKEYFYTSGKCSNPAVVFVTRKNRQVCANPEKKWVREYINSLEMS
category-label: yes

binder: RANTES derivative: signature sequence SEQ ID NO: 19 fused to positions 10-68 of native RANTES (SEQ ID NO: 1) (ligand) QGPPGDGGSVCCFAYIARPLPRAHIKEYFYTSGKCSNPAVVFVTRKNRQVCANPEKKWVREYINSLEMS
category-label: no

binder: RANTES derivative: signature sequence SEQ ID NO: 24 fused to positions 10-68 of native RANTES (SEQ ID NO: 1) (ligand) QGPPLMSLQVCCFAYIARPLPRAHIKEYFYTSGKCSNPAVVFVTRKNRQVCANPEKKWVREYINSLEMS
category-label: yes

binder: RANTES derivative: signature sequence SEQ ID NO: 54 fused to positions 10-68 of native RANTES (SEQ ID NO: 1) (ligand) QGPPGQWGQVCCFAYIARPLPRAHIKEYFYTSGKCSNPAVVFVTRKNRQVCANPEKKWVREYINSLEMS
category-label: yes

binder: RANTES derivative: signature sequence SEQ ID NO: 48 fused to positions 10-68 of native RANTES (SEQ ID NO: 1) (ligand) QGPLSSQSQVCCFAYIARPLPRAHIKEYFYTSGKCSNPAVVFVTRKNRQVCANPEKKWVREYINSLEMS
category-label: no

binder: RANTES derivative: signature sequence SEQ ID NO: 69 fused to positions 10-68 of native RANTES (SEQ ID NO: 1) (ligand) QGPPLMSGQVCCFAYIARPLPRAHIKEYFYTSGKCSNPAVVFVTRKNRQVCANPEKKWVREYINSLEMS
category-label: yes

binder: RANTES derivative: signature sequence SEQ ID NO: 62 fused to positions 10-68 of native RANTES (SEQ ID NO: 1) (ligand) QGPPLMSTQVCCFAYIARPLPRAHIKEYFYTSGKCSNPAVVFVTRKNRQVCANPEKKWVREYINSLEMS
category-label: no

binder: RANTES derivative: signature sequence SEQ ID NO: 17 fused to positions 10-68 of native RANTES (SEQ ID NO: 1) (ligand) QGPPGDIVLACCFAYIARPLPRAHIKEYFYTSGKCSNPAVVFVTRKNRQVCANPEKKWVREYINSLEMS
category-label: no

binder: RANTES derivative: signature sequence SEQ ID NO: 16 fused to positions 10-68 of native RANTES (SEQ ID NO: 1) (ligand) QGPPGDTVLWCCFAYIARPLPRAHIKEYFYTSGKCSNPAVVFVTRKNRQVCANPEKKWVREYINSLEMS
category-label: no

binder: RANTES derivative: signature sequence SEQ ID NO: 45 fused to positions 10-68 of native RANTES (SEQ ID NO: 1) (ligand) QGPPLMSLTVCCFAYIARPLPRAHIKEYFYTSGKCSNPAVVFVTRKNRQVCANPEKKWVREYINSLEMS
category-label: no

binder: RANTES derivative: signature sequence SEQ ID NO: 8 fused to positions 10-68 of native RANTES (SEQ ID NO: 1) (ligand) QGPPLMWMQSCCFAYIARPLPRAHIKEYFYTSGKCSNPAVVFVTRKNRQVCANPEKKWVREYINSLEMS
category-label: yes

binder: RANTES derivative: signature sequence SEQ ID NO: 65 fused to positions 10-68 of native RANTES (SEQ ID NO: 1) (ligand) QGPPLMSLQACCFAYIARPLPRAHIKEYFYTSGKCSNPAVVFVTRKNRQVCANPEKKWVREYINSLEMS
category-label: yes

binder: RANTES derivative: signature sequence SEQ ID NO: 41 fused to positions 10-68 of native RANTES (SEQ ID NO: 1) (ligand) QGPPLMNLQVCCFAYIARPLPRAHIKEYFYTSGKCSNPAVVFVTRKNRQVCANPEKKWVREYINSLEMS
category-label: yes

binder: RANTES derivative: signature sequence SEQ ID NO: 37 fused to positions 10-68 of native RANTES (SEQ ID NO: 1) (ligand) QGPPLMGTQSCCFAYIARPLPRAHIKEYFYTSGKCSNPAVVFVTRKNRQVCANPEKKWVREYINSLEMS
category-label: yes

binder: RANTES derivative: signature sequence SEQ ID NO: 15 fused to positions 10-68 of native RANTES (SEQ ID NO: 1) (ligand) QGPPLMQTTPCCFAYIARPLPRAHIKEYFYTSGKCSNPAVVFVTRKNRQVCANPEKKWVREYINSLEMS
category-label: yes

binder: RANTES derivative: signature sequence SEQ ID NO: 44 fused to positions 10-68 of native RANTES (SEQ ID NO: 1) (ligand) QGPPLMSLAVCCFAYIARPLPRAHIKEYFYTSGKCSNPAVVFVTRKNRQVCANPEKKWVREYINSLEMS
category-label: no

binder: RANTES derivative: signature sequence SEQ ID NO: 30 fused to positions 10-68 of native RANTES (SEQ ID NO: 1) (ligand) QGPPLSWLQVCCFAYIARPLPRAHIKEYFYTSGKCSNPAVVFVTRKNRQVCANPEKKWVREYINSLEMS
category-label: yes

binder: RANTES derivative: signature sequence SEQ ID NO: 63 fused to positions 10-68 of native RANTES (SEQ ID NO: 1) (ligand) QGPPLMSLSVCCFAYIARPLPRAHIKEYFYTSGKCSNPAVVFVTRKNRQVCANPEKKWVREYINSLEMS
category-label: no

binder: RANTES derivative: signature sequence SEQ ID NO: 39 fused to positions 10-68 of native RANTES (SEQ ID NO: 1) (ligand) QGPPLSWSQVCCFAYIARPLPRAHIKEYFYTSGKCSNPAVVFVTRKNRQVCANPEKKWVREYINSLEMS
category-label: yes

binder: RANTES derivative: signature sequence SEQ ID NO: 59 fused to positions 10-68 of native RANTES (SEQ ID NO: 1) (ligand) QGPPGQWYQSCCFAYIARPLPRAHIKEYFYTSGKCSNPAVVFVTRKNRQVCANPEKKWVREYINSLEMS
category-label: yes

Reference for the values: patent US20090317363A1
